Listing of recorded Selectivity by entry.
# assayedSystem: Monoamine transporters; serotonin & dopamine (Homo sapiens) (UniProt P31645+Q01959)
# Sequence (P31645 whole entry, looked up): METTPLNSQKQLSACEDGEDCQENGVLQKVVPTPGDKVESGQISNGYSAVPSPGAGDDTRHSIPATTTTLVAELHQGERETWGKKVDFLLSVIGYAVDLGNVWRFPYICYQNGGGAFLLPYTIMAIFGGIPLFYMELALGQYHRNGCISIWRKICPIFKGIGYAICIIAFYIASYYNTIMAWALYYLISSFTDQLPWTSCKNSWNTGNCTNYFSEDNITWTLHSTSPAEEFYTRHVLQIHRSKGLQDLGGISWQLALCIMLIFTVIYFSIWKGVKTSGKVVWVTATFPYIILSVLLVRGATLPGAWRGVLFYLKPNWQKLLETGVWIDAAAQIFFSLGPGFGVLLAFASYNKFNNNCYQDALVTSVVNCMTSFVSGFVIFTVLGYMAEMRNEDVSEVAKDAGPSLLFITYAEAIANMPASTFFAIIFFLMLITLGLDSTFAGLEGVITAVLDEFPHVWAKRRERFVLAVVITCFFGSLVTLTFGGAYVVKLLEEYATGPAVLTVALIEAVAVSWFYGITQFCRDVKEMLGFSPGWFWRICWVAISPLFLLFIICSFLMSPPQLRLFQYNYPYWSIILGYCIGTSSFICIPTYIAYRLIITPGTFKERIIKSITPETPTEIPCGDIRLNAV
# Sequence (Q01959 whole entry, looked up): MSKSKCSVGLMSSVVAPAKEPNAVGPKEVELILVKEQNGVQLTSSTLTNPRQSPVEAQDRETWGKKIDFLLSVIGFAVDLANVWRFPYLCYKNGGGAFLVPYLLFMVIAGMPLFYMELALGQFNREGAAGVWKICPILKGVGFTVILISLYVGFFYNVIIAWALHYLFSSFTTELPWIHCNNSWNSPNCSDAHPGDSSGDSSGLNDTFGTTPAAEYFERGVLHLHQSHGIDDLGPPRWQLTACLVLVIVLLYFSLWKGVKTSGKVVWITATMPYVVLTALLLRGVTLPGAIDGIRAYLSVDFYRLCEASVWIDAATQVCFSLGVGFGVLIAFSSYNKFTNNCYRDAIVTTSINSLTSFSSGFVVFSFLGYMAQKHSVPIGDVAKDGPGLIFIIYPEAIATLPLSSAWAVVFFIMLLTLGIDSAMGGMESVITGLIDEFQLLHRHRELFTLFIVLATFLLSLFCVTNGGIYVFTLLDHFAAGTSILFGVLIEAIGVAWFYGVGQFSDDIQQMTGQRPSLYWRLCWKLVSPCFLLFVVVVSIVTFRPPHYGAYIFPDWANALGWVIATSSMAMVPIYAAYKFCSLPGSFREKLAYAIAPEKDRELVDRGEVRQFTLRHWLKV
# methodDescription: Selectivity was measured as SERT/DAT
# Assay type: protein assay
Just the number, please, no unit attached.

Solved entries:
- molecule: "O=C(NC1CCC(C(c2ccccc2)c2ccccc2)NC1)c1ccc(F)cc1 (racemic)"
  Selectivity: 71.4
- molecule: "Fc1ccc(CNC2CCC(C(c3ccccc3)c3ccccc3)NC2)cc1 (stereo in doubt)"
  Selectivity: 6.28
- molecule: "Fc1ccc(CNC2CCC(C(c3ccccc3)c3ccccc3)NC2)cc1 (cis isomer)"
  Selectivity: 93.7

Selectivity lookup needed for Fc1ccc(CN2CCC(CNCC(c3ccccc3)c3ccccc3)CC2)cc1 , thanks.
6.9

====

For reference, pIC50 measured on Norepinephrine transporter (Rattus norvegicus, UniProt Q9WTR4):
As a rule, pIC50 stands for the negative log10 of the concentration, concentration in M.

Solved entries:
- compound: "O=C(NC1CCC(C(c2ccccc2)c2ccccc2)NC1)c1ccc(F)cc1 (racemic)"
  pIC50: 5.25
- compound: "Fc1ccc(CNC2CCC(C(c3ccccc3)c3ccccc3)NC2)cc1 (cis isomer)"
  pIC50: 5.87

API: value(readout=pIC50, system=Norepinephrine transporter (Rattus norvegicus, UniProt Q9WTR4)) for record Fc1ccc(CNC2CCC(C(c3ccccc3)c3ccccc3)NC2)cc1 (stereo in doubt)
5.35

====

# assayedSystem: Sodium-dependent dopamine transporter (Rattus norvegicus)
# Sequence (P23977 whole entry): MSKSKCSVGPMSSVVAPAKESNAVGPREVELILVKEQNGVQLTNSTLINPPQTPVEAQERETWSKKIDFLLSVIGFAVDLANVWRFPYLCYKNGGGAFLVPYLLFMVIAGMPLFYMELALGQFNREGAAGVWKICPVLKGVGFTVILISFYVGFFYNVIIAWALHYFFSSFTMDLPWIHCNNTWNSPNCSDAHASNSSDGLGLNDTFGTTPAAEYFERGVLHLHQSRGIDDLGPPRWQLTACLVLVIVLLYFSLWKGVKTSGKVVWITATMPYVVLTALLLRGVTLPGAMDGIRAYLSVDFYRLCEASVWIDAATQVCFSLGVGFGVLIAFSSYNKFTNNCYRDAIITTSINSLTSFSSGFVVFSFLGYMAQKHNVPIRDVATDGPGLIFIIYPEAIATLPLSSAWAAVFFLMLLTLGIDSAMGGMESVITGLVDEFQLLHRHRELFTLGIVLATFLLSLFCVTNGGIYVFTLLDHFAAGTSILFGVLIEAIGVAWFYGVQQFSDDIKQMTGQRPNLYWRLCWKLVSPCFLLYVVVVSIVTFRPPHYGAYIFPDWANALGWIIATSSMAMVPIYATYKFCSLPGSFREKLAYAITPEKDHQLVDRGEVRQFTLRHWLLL
valueType: IC50
Record the result as a number with its unit.

- compound: "O=C(NC1CCC(C(c2ccccc2)c2ccccc2)NC1)c1ccc(F)cc1 (racemic)"
  reportedValue: "87 nM"

IC50 lookup needed for Fc1ccc(CNC2CCC(C(c3ccccc3)c3ccccc3)NC2)cc1 (stereo in doubt) , thanks.
21.2 nM

====

For reference, IC50 measured on Sodium-dependent serotonin transporter (Rattus norvegicus):
Write the number in µM without appending the unit.

Solved entries:
- compound: "Fc1ccc(CNC2CCC(C(c3ccccc3)c3ccccc3)NC2)cc1 (cis isomer)"
  assayedSystem: "Sodium-dependent serotonin transporter (Rattus norvegicus)"
  valueType: "IC50"
  reportedValue: 2.81
- compound: "Fc1ccc(CNC2CCC(C(c3ccccc3)c3ccccc3)NC2)cc1 (stereo in doubt)"
  assayedSystem: "Sodium-dependent serotonin transporter (Rattus norvegicus)"
  valueType: "IC50"
  reportedValue: 1.33

Turning to the following compound.
IC50 lookup needed for O=C(NC1CCC(C(c2ccccc2)c2ccccc2)NC1)c1ccc(F)cc1 (racemic) , thanks.
6.21

====

# Species on record: Rattus norvegicus
# methodDescription: Inhibition of [3H]dopamine reuptake in rat […]
# Type: functional
Listing of recorded pIC50 by entry.
As a rule, pIC50 stands for the negative log10 of the concentration, concentration in M.

- molecule: "Fc1ccc(CNC2CCC(C(c3ccccc3)c3ccccc3)NC2)cc1 (cis isomer)"
  pIC50: 7.54

pIC50 lookup needed for Fc1ccc(CNC2CCC(C(c3ccccc3)c3ccccc3)NC2)cc1 (stereo in doubt) , thanks.
6.97
